Tested on: Ba/F3 EGFR ASV ins cells
RUN DESCRIPTION: Cell proliferation, Ba/F3 EGFR ASV ins (CellTiter-Glo, 72 h);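 also: IL3-independent Ba/F3 cells transduced with EGFR V769_D770insASV, cellular ATP luminescence after compound exposure, growth relative to DMSO control with the day-0 baseline reading subtracted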
Format: cell-based
EXPERIMENTAL CONTEXT: Ba/F3 EGFR, 72 h, Ba/F3 EGFR ASV ins, 72 h proliferation; read-out: EGFR Exon20 ASV insertion GI50
ENDPOINT: GI50 (nM)
Dear colleague, please return just the value in nM, with no unit written.

COMPOUND | GI50, nM
C=CC(=O)Nc1cc(Nc2nccc(Nc3cc(Cl)c(F)cc3C(C)(C)O)n2)c(OC)cc1N1C[C@@H](F)[C@@H](N(C)C)C1 | 176

# input Field request: GI50 | item: C=CC(=O)Nc1cc(Nc2ncnc(Nc3cc(Cl)c(F)cc3C(C)(O)CC)n2)c(OC)cc1N1CC[C@@H]1CN(C)C (stereo partly drawn)
# output 45.1

# input Request: C=CC(=O)Nc1cc(Nc2ncnc(Nc3cc(F)c(F)cc3C(C)(C)O)n2)c(OC)cc1N(C)CCN(C)C
# output 20.7

----------
# GI50 listing for each entry below
Tested on: DB cells
RUN DESCRIPTION: BTK (wt) cell proliferation, DB (CellTiter-Glo, 72 h);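 also: DB cells in 384-well plates given a dilution series of compound, viable cells read by ATP luminescence, growth expressed versus DMSO control after subtracting a time-zero plate reading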
Type: cell-based
EXPERIMENTAL CONTEXT: Homo sapiens, DB, DB cells, CellTiter-Glo, read-out: Non-BCR activated DB GI50
Where a name gives a salt, the structure may show the parent alone.

Example compounds with recorded GI50:
COMPOUND | ENDPOINT | MEASUREMENT
C=CC(=O)Nc1cc(Nc2ncnc(Nc3cc(Cl)c(F)cc3C(C)(C)O)n2)c(OC)cc1N1CC[C@@H]2CN(C)C[C@@H]21 [Compound 28] | GI50 | > 3000 nM
C=CC(=O)Nc1cc(Nc2nccc(Nc3cc(Cl)c(F)cc3C(C)(C)O)n2)c(OC)cc1N1CC[C@@H](N(C)C)C1 [Compound 52] | GI50 | 1980 nM
C=CC(=O)Nc1cc(Nc2nccc(Nc3cc(Cl)c(Cl)cc3C(C)(C)O)n2)c(OC)cc1N1CC[C@@H]1CN(C)C [Compound 71] | GI50 | 2950 nM
C=CC(=O)Nc1cc(Nc2ncnc(Nc3cc4cc[nH]c4cc3C(C)(C)O)n2)c(OC)cc1N(C)CCN(C)C [Compound 95] | GI50 | > 3000 nM
C=CC(=O)Nc1cc(Nc2ncnc(Nc3cc(F)c(F)cc3C(C)(C)O)n2)c(OC)cc1N(C)C[C@H]1CCCN1C [Compound 20] | GI50 | > 3000 nM

# input Tell me the measured GI50 of C=CC(=O)Nc1cc(Nc2ncnc(Nc3cc(Cl)c(Cl)cc3C(C)(C)O)n2)c(OC)cc1N1CC[C@@H](N(C)C)C1 [Compound 61] , please.
# output 1510 nM

# input # repeat for C=CC(=O)Nc1cc(Nc2nccc(Nc3cc(Cl)c(F)cc3C(C)(C)O)n2)c(OC)cc1N1C[C@@H](F)[C@@H](N(C)C)C1 [Compound 79]
# output > 3000 nM

# input Then C=CC(=O)Nc1cc(Nc2nccc(Nc3cc(Cl)c(F)cc3C(C)(C)O)n2)c(OC)cc1N1CC[C@@H](NC)C1 [Compound 80, TFA salt] ?
# output > 3000 nM

----------
ASSAYED TARGET: EGFR L858R&T790M (Homo sapiens, UniProt P00533, L858R/T790M)
Sequence (P00533 25-1210 T790M/L858R): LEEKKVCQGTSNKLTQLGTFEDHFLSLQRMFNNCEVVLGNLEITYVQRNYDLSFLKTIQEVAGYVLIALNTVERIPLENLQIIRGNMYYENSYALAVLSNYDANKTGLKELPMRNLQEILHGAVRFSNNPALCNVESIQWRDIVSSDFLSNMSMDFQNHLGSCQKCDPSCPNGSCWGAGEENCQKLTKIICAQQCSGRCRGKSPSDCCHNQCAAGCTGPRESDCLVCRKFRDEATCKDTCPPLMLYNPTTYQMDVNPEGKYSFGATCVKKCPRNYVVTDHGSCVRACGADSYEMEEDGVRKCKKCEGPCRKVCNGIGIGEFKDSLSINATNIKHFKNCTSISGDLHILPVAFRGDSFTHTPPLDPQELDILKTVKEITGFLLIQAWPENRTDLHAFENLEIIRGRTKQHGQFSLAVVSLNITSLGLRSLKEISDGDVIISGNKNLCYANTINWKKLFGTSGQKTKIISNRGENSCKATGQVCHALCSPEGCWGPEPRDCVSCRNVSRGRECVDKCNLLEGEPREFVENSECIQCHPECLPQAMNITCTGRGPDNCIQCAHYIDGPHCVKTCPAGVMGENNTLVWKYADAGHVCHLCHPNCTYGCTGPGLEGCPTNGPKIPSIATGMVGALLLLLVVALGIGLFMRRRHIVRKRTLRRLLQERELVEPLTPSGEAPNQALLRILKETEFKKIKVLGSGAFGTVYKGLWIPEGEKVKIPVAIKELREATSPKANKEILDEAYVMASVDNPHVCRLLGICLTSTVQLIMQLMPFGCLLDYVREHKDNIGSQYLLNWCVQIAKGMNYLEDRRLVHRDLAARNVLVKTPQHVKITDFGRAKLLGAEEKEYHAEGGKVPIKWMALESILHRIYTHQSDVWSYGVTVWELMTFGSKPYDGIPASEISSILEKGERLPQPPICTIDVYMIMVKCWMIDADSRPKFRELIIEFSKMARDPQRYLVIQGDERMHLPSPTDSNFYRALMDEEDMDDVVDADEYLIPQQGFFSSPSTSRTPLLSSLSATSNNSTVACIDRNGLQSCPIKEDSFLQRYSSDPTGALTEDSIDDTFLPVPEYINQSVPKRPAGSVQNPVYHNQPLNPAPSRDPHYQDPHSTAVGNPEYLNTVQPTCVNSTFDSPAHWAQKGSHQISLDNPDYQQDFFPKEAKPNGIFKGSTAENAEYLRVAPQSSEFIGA
RUN DESCRIPTION: EGFR L858R and T790M cellular phosphorylation inhibition in NCI-H1975 (MSD);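 also: phosphorylated and total EGFR detected by electrochemiluminescence, cells exposed to compound in medium containing 1% FBS at 37 °C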
EXPERIMENTAL CONTEXT: NCI-H1975 cells, 4 h compound, p-EGFR(Y1068)/total EGFR; read-out: EGFR L858R and T790M mutation IC50
Listed next: entries and their corresponding IC50.
# unit: pM | format: bare number

Worked examples, 3 compounds total:
COMPOUND | IC50 / pM
C=CC(=O)Nc1cc(Nc2ncnc(Nc3cc(F)c(F)cc3C(C)(C)O)n2)c(OC)cc1N(C)C[C@H]1CCCN1C | 500
C=CC(=O)Nc1cc(Nc2ncnc(Nc3cc(Cl)c(F)cc3C(C)(O)CC)n2)c(OC)cc1N(C)CCN(C)C (stereo not shown) | 600
C=CC(=O)Nc1cc(Nc2ncnc(Nc3cc(Cl)c(F)cc3C(C)(O)CC)n2)c(OC)cc1N1CCC[C@H]1CN(C)C (stereo partly shown) | 7100

Consider the additional compound presented here.
# input Fill in: IC50 of C=CC(=O)Nc1cc(Nc2ncnc(Nc3cc(Cl)c(Cl)cc3C(C)(C)O)n2)c(OC)cc1N1CC[C@@H](N(C)C)C1 is ___
# output 400

These entries and their values trace back to patent US20230293535A1.
